assay: Biodistribution of 99mTc complexes in mice; assay type: in vivo, Balb/c mice; settings: 10 min
Experimental endpoint: biodistribution bone (% Injected dose)

{"columns": ["Compound smiles", "Experimental endpoint", "Assay result"],
 "data": [
  ["Cc1cc(C)c(O)c(NC(=O)CN(CCN(CC(=O)O)CC(=O)Nc2cc(C)cc(C)c2O)CC(=O)O)c1", "biodistribution bone", 2.76]
]}

(A) O=C(O)CN(CCN(CC(=O)O)CC(=O)Nc1ccc(Cl)cc1O)CC(=O)Nc1ccc(Cl)cc1O
(B) O=C(O)CN(CCN(CC(=O)O)CC(=O)Nc1ccccc1O)CC(=O)Nc1ccccc1O
// returns A or B , whichever has the lower biodistribution bone // respond with label for picked entry
A
(A: 2.76 % Injected dose, B: 5.06 % Injected dose)

----------
assay: Biodistribution of compound No. 6 in mice (Table 6); format: in vivo, Balb/c mice; conditions: mouse, tail, 3 min, read-out: biodistribution tail
Experimental endpoint: tissue uptake at 0.05 h (%ID/g)
Please reply with the bare figure in %ID/g and do not write the unit itself.

Item under review: Cc1cc(C)c(O)c(NC(=O)CN(CCN(CC(=O)O)CC(=O)Nc2cc(C)cc(C)c2O)CC(=O)O)c1 . Reported tissue uptake at 0.05 h?
8.94

----------
assay: Biodistribution of 99mTc complexes in mice; type: in vivo, Balb/c mice; settings: 3 min
Experimental endpoint: biodistribution kidney (% Injected dose)

(A) O=C(O)CN(CCN(CC(=O)O)CC(=O)Nc1ccc(Cl)cc1O)CC(=O)Nc1ccc(Cl)cc1O
(B) Cc1cc(C)c(O)c(NC(=O)CN(CCN(CC(=O)O)CC(=O)Nc2cc(C)cc(C)c2O)CC(=O)O)c1
biodistribution kidney comparison. Which is larger, A or B ? // respond with label for picked entry
A
(A: 10.44 % Injected dose, B: 5.68 % Injected dose)

----------
experiment: Biodistribution of 99mTc complexes in rats; format: in vivo, Australian Albino Wistar Rats; settings: rat, tail, rats, 5 min, read-out: biodistribution tail
Experimental endpoint: tissue uptake at 5 min (%ID/g)

Would you please look over these solved cases?
{"columns": ["Compound smiles", "Readout unit", "Assay result"],
 "data": [
  ["O=C(O)CN(CCN(CC(=O)O)CC(=O)Nc1cc([N+](=O)[O-])ccc1O)CC(=O)Nc1cc([N+](=O)[O-])ccc1O", "%ID/g", 0.84],
  ["CC(C)(C)c1ccc(O)c(NC(=O)CN(CCN(CC(=O)O)CC(=O)Nc2cc(C(C)(C)C)ccc2O)CC(=O)O)c1", "%ID/g", 1.23],
  ["Nc1ccc(O)c(NC(=O)CN(CCN(CC(=O)O)CC(=O)Nc2cc(N)ccc2O)CC(=O)O)c1", "%ID/g", 0.15]
]}

(a) O=C(O)CN(CCN(CC(=O)O)CC(=O)Nc1ccccc1O)CC(=O)Nc1ccccc1O
(b) O=C(O)CN(CCN(CC(=O)O)CC(=O)Nc1ccc(Cl)cc1O)CC(=O)Nc1ccc(Cl)cc1O
// returns a or b , whichever has the lower tissue uptake at 5 min // respond with label for picked entry
a

----------
assay: Biodistribution of compound No. 6 in mice (Table 6); format: in vivo, Balb/c mice; details: mouse, blood, 3 min, read-out: biodistribution blood
Experimental endpoint: tissue uptake at 0.05 h (%ID/g)
Please reply with the bare figure in %ID/g and do not write the unit itself.

Item under review: Cc1cc(C)c(O)c(NC(=O)CN(CCN(CC(=O)O)CC(=O)Nc2cc(C)cc(C)c2O)CC(=O)O)c1 . Reported tissue uptake at 0.05 h?
10.7

----------
assay: Biodistribution of 99mTc complexes in rats; type: in vivo, Australian Albino Wistar Rats; conditions: rat, lungs, rats, 30 sec, read-out: biodistribution lungs
Experimental endpoint: tissue uptake at 0.5 min (%ID/g)

{"columns": ["Compound", "Readout unit", "tissue uptake at 0.5 min"],
 "data": [
  ["CC(C)(C)c1ccc(O)c(NC(=O)CN(CCN(CC(=O)O)CC(=O)Nc2cc(C(C)(C)C)ccc2O)CC(=O)O)c1 [Compound 4]", "%ID/g", 2.37],
  ["O=C(O)CN(CCN(CC(=O)O)CC(=O)Nc1ccccc1O)CC(=O)Nc1ccccc1O [Compound 1]", "%ID/g", 1.15],
  ["Nc1ccc(O)c(NC(=O)CN(CCN(CC(=O)O)CC(=O)Nc2cc(N)ccc2O)CC(=O)O)c1 [Compound 5]", "%ID/g", 1.66],
  ["O=C(O)CN(CCN(CC(=O)O)CC(=O)Nc1cc([N+](=O)[O-])ccc1O)CC(=O)Nc1cc([N+](=O)[O-])ccc1O [Compound 3]", "%ID/g", 1.24],
  ["O=C(O)CN(CCN(CC(=O)O)CC(=O)Nc1ccc(Cl)cc1O)CC(=O)Nc1ccc(Cl)cc1O [Compound 2]", "%ID/g", 1.2]
]}

----------
test: Biodistribution of 99mTc complexes in rats; assay type: in vivo, Australian Albino Wistar Rats; conditions: rat, stomach, rats, 1 min, read-out: biodistribution stomach
Experimental endpoint: tissue uptake at 1 min (%ID/g)

{"columns": ["Compound smiles", "tissue uptake at 1 min [%ID/g]"],
 "data": [
  ["Nc1ccc(O)c(NC(=O)CN(CCN(CC(=O)O)CC(=O)Nc2cc(N)ccc2O)CC(=O)O)c1", 0.42],
  ["CC(C)(C)c1ccc(O)c(NC(=O)CN(CCN(CC(=O)O)CC(=O)Nc2cc(C(C)(C)C)ccc2O)CC(=O)O)c1", 0.95]
]}

(P) O=C(O)CN(CCN(CC(=O)O)CC(=O)Nc1ccccc1O)CC(=O)Nc1ccccc1O
(Q) O=C(O)CN(CCN(CC(=O)O)CC(=O)Nc1ccc(Cl)cc1O)CC(=O)Nc1ccc(Cl)cc1O
// returns P or Q , whichever has the lower tissue uptake at 1 min // respond with label for picked entry
P

----------
experiment: Biodistribution of 99mTc complexes in rats; assay type: in vivo, Australian Albino Wistar Rats; conditions: rat, spleen, rats, 5 min, read-out: biodistribution spleen
Experimental endpoint: tissue uptake at 5 min (%ID/g)

Would you please look over these solved cases?
{"columns": ["Compound", "tissue uptake at 5 min / %ID/g"],
 "data": [
  ["O=C(O)CN(CCN(CC(=O)O)CC(=O)Nc1ccc(Cl)cc1O)CC(=O)Nc1ccc(Cl)cc1O [Compound 2]", 0.25],
  ["O=C(O)CN(CCN(CC(=O)O)CC(=O)Nc1cc([N+](=O)[O-])ccc1O)CC(=O)Nc1cc([N+](=O)[O-])ccc1O [Compound 3]", 0.23],
  ["CC(C)(C)c1ccc(O)c(NC(=O)CN(CCN(CC(=O)O)CC(=O)Nc2cc(C(C)(C)C)ccc2O)CC(=O)O)c1 [Compound 4]", 0.32]
]}

(1) O=C(O)CN(CCN(CC(=O)O)CC(=O)Nc1ccccc1O)CC(=O)Nc1ccccc1O [Compound 1]
(2) Nc1ccc(O)c(NC(=O)CN(CCN(CC(=O)O)CC(=O)Nc2cc(N)ccc2O)CC(=O)O)c1 [Compound 5]
// returns 1 or 2 , whichever has the lower tissue uptake at 5 min // respond with label for picked entry
1

----------
assay: Biodistribution of 67Ga complexes in mice; assay type: in vivo, balb/c mice; details: 120 min
Experimental endpoint: biodistribution liver (% ID)

Would you please look over these solved cases?
{"columns": ["Compound smiles", "Readout unit", "biodistribution liver"],
 "data": [
  ["O=C(O)CN(CCN(CC(=O)O)CC(=O)Nc1ccc(Cl)cc1O)CC(=O)Nc1ccc(Cl)cc1O", "% ID", 0.92],
  ["CC(C)(C)c1ccc(O)c(NC(=O)CN(CCN(CC(=O)O)CC(=O)Nc2cc(C(C)(C)C)ccc2O)CC(=O)O)c1", "% ID", 0.29]
]}

(1) O=C(O)CN(CCN(CC(=O)O)CC(=O)Nc1ccccc1O)CC(=O)Nc1ccccc1O
(2) Cc1cc(C)c(O)c(NC(=O)CN(CCN(CC(=O)O)CC(=O)Nc2cc(C)cc(C)c2O)CC(=O)O)c1
biodistribution liver comparison. Which is larger, 1 or 2 ? // respond with label for picked entry
2
(2: 1.33 % ID, 1: 0.88 % ID)

----------
assay: Biodistribution of compound No. 6 in mice (Table 6); type: in vivo, Balb/c mice; settings: mouse, brain, 3 min, read-out: biodistribution brain
Experimental endpoint: tissue uptake at 0.05 h (%ID/g)
Please reply with the bare figure in %ID/g and do not write the unit itself.

Item under review: Cc1cc(C)c(O)c(NC(=O)CN(CCN(CC(=O)O)CC(=O)Nc2cc(C)cc(C)c2O)CC(=O)O)c1 [Compound 6] . Reported tissue uptake at 0.05 h?
0.74

----------
experiment: Biodistribution of 99mTc complexes in mice; type: in vivo, Balb/c mice; settings: 30 min
Experimental endpoint: biodistribution blood (% Injected dose)

{"columns": ["Compound smiles", "biodistribution blood, % Injected dose"],
 "data": [
  ["CC(C)(C)c1ccc(O)c(NC(=O)CN(CCN(CC(=O)O)CC(=O)Nc2cc(C(C)(C)C)ccc2O)CC(=O)O)c1", 3.88]
]}

(1) O=C(O)CN(CCN(CC(=O)O)CC(=O)Nc1ccc(Cl)cc1O)CC(=O)Nc1ccc(Cl)cc1O
(2) Cc1cc(C)c(O)c(NC(=O)CN(CCN(CC(=O)O)CC(=O)Nc2cc(C)cc(C)c2O)CC(=O)O)c1
(3) O=C(O)CN(CCN(CC(=O)O)CC(=O)Nc1ccccc1O)CC(=O)Nc1ccccc1O
Arrange by biodistribution blood, high to low. Provide your answer as the labels ordered per the instruction.
2, 1, 3
(2: 9.66 % Injected dose, 1: 3.58 % Injected dose, 3: 1.82 % Injected dose)
